The reported numbers originate from PubChem BioAssay (NCI).

Entries and their growth
test system: SF-295 CNS; experiment: NCI-60 one-dose screen, 48 h (100 = growth as untreated, 0 = no growth, -100 = all killed); conditions: 10 µM unless noted
This is part of a sample that, as a whole, favours compounds with a hit. Of some 83,000 tested, about 20% had one in any assay. Active and inactive are the calls of the source. Rule for the calls: active = growth percent below 10; inactive = the rest.
Measured parameter: growth

* CCNC(=O)Oc1ccc(/C(=C(/C)Cc2ccc(OC)cc2)c2ccc(OCCN3CCCCCC3)cc2)cc1 | 88.4% (inactive)
* C=C(CO)[C@@H]1CC[C@]2(COC3CCCCO3)CC[C@]3(C)[C@H](CC[C@@H]4[C@@]5(C)C=C(C=O)C(=O)C(C)(C)[C@@H]5CC[C@]43C)[C@@H]12 (some centres undefined) | -89.5% (active)
* CCOC(=O)c1c(-c2ccccc2)n2c(=O)cc(C)c3c(O)c(O)cc1c32 | 59.9% (inactive)
* CCOC(=O)N1CCN(S(=O)(=O)c2oc(-c3ccc(Cl)cc3)nc2C#N)CC1 | 102% (inactive)
